# target.of.assay: FAAH (Mus musculus, UniProt O08914)
# Construct: Proteomes (mouse brain membrane fraction or cell lysates); from tissue; host or cells: mouse brain membrane fraction (or cell lysates)
# Sequence (O08914 whole entry): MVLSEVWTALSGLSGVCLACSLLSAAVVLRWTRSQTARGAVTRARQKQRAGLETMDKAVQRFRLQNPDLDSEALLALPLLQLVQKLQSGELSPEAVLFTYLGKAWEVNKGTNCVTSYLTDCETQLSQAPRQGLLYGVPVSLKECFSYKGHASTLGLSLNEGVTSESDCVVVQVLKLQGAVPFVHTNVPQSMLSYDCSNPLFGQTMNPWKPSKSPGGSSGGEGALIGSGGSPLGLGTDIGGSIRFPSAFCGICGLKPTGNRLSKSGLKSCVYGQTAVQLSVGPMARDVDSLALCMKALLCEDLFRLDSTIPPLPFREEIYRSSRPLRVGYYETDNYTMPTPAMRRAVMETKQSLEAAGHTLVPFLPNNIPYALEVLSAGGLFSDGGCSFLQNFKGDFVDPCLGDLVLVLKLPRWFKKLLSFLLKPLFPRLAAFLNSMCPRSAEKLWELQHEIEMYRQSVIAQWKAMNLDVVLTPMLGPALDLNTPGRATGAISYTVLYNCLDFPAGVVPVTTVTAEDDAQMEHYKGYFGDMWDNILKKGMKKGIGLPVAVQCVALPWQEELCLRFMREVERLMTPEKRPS
# assay: In vitro competitive activity-based protein profiling (mouse), FAAH gel band
# Type: biochemical
# applied.conditions: read-out: FAAH % inh. 1 μM
readout.type: inhibition at 1 µM

Use the examples below as a reference point.
[
  {
    "molecule": "CC1CCCN1c1cc(C(F)(F)F)ccc1CN1CCN(C(=O)n2ccc(NS(C)(=O)=O)n2)CC1 (stereo not drawn) [Example 189]",
    "inhibition at 1 µM": "0 to 25%"
  },
  {
    "molecule": "CS(=O)(=O)Nc1ccn(C(=O)N2CCC3(CCCN3Cc3ccc(Cl)cc3N3C[C@H]4CC[C@@H](C3)O4)CC2)n1 [Example 139]",
    "inhibition at 1 µM": "0 to 25%"
  },
  {
    "molecule": "CS(=O)(=O)Nc1ccn(C(=O)N2CCN(Cc3ccc(Cl)c(N4CCCCC4)c3)CC2)n1 [Example 236]",
    "inhibition at 1 µM": "0 to 25%"
  },
  {
    "molecule": "CC(=O)Nc1ccn(C(=O)N2CCC3(CCCN3Cc3cc(N4C5CCC4COC5)cc(C(F)(F)F)c3)CC2)n1 [Example 62]",
    "inhibition at 1 µM": "0 to 25%"
  },
  {
    "molecule": "CS(=O)(=O)Nc1ccn(C(=O)N2CCN(Cc3cc(N4CCC(C(=O)O)CC4)cc(C(F)(F)F)c3)CC2)n1 [Example 242]",
    "inhibition at 1 µM": "0 to 25%"
  }
]

Challenge: Fill in: inhibition at 1 µM on FAAH (Mus musculus, UniProt O08914), entry CC(=O)Nc1ccn(C(=O)N2CCN(Cc3ccc(C(F)(F)F)cc3N3CCC4(C3)CN(S(C)(=O)=O)C4)CC2)n1 [Example 44]
Response given: 0 to 25%

Challenge: Fill in: inhibition at 1 µM on FAAH (Mus musculus, UniProt O08914), entry CCN1CCN(c2cc(C(F)(F)F)ccc2CN2CCCC23CCN(C(=O)n2ccc(NC(C)=O)n2)CC3)CC1 [Example 31]
Response given: 0 to 25%

Challenge: Fill in: inhibition at 1 µM on FAAH (Mus musculus, UniProt O08914), entry CC(=O)Nc1ccn(C(=O)N2CCC3(CCCN3Cc3cc(OC4CCN(C5CC5)CC4)cc(C(F)(F)F)c3)CC2)n1 [Example 82]
Response given: 0 to 25%

Challenge: Fill in: inhibition at 1 µM on FAAH (Mus musculus, UniProt O08914), entry CS(=O)(=O)Nc1ccn(C(=O)N2CCN(Cc3ccc(Cl)cc3N3CCCC3)CC2)n1 [Example 127]
Response given: 0 to 25%

Challenge: Fill in: inhibition at 1 µM on FAAH (Mus musculus, UniProt O08914), entry CS(=O)(=O)Nc1ccn(C(=O)N2CCN(Cc3ccc(Cl)c(-c4ncon4)c3)CC2)n1 [Example 261]
Response given: 0 to 25%

====

# target.of.assay: MAGL (Mus musculus)
# Construct: Proteomes (mouse brain membrane fraction or cell lysates); from tissue; host or cells: mouse brain membrane fraction (or cell lysates)
# Sequence (O35678 whole entry): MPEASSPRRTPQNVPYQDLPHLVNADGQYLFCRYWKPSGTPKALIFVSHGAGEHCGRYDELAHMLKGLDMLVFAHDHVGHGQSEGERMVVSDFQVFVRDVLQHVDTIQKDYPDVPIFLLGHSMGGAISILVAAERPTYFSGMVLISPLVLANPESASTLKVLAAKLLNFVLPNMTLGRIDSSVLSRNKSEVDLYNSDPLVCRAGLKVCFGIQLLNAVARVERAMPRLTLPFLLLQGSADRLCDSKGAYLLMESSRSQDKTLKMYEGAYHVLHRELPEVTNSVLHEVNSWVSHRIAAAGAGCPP
# assay: In vitro competitive activity-based protein profiling (mouse), MAGL gel band
# Format: biochemical
# applied.conditions: read-out: MAGL % inh. 1 μM
inhibition at 1 µM overview

[
  {
    "mol.smiles": "CC(=O)Nc1ccn(C(=O)N2CCN(Cc3ccc(C(F)(F)F)cc3N3CCC(F)CC3)CC2)n1",
    "target.of.assay": "MAGL (Mus musculus)",
    "inhibition at 1 µM": "≥ 75%"
  },
  {
    "mol.smiles": "[2H]C([2H])([2H])C(=O)Nc1ccn(C(=O)N2CCC3(CCCN3Cc3ccc(Cl)c(C)c3)CC2)n1",
    "target.of.assay": "MAGL (Mus musculus)",
    "inhibition at 1 µM": "≥ 75%"
  },
  {
    "mol.smiles": "CC(=O)Nc1ccn(C(=O)N2CCC3(CCCN3Cc3ccc(C)c(Cl)c3)CC2)n1",
    "target.of.assay": "MAGL (Mus musculus)",
    "inhibition at 1 µM": "≥ 75%"
  }
]

Next:
Challenge: Return value of inhibition at 1 µM for input CS(=O)(=O)Nc1ccn(C(=O)N2CCC3(CCCN3Cc3ccc(C(F)(F)F)cc3N3CCN(C4CC4)CC3)CC2)n1 , no commentary.
Response given: 0 to 25%
